Measured values drawn from PubChem BioAssay AID1159580 for this set.

I'd appreciate it if you could supply normalized growth values for the items below.
Assay: chemical genetic growth profiling, strain panel (AID 1159580);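 also: tested at 20 µM; growth read once vehicle control cultures reached saturation at 30 °C; 1 = growth at the plate median or of vehicle wells; lower values mean less growth of the strain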
Conditions: S. cerevisiae deletion strains, growth OD, locus YBR023C, strain chs3, stronger effect = lower value
About 2,000 (36%) of roughly 5,500 compounds were called active. Not shown: some 18% with an inconclusive outcome. The list shows a part of the results.
Just the number, please.

Fill in the blank: the reported normalized growth of COc1cc2c(cc1OC)[C@@]13CCN4CC5=CCOC6CC(=O)N2C1[C@H]6[C@H]5C[C@H]43 (stereo not given in full) is ____. 0.989

Would you mind doing COc1c2ccoc2cc2oc(C)cc(=O)c12 as well? 0.991

Another compound to look at: CN1CCN(CCC=C2c3ccccc3Sc3ccc(S(=O)(=O)N(C)C)cc32)CC1 0.919

Also CC(=O)N[C@@H](Cc1c[nH]c2ccccc12)C(=O)O , if possible. 0.996

Same read-out for CC1(C)C=Cc2cc3ccc(=O)oc3cc2O1 ? 0.912

How about this compound: CC1=CC2C(C(C)C)CCC(C)(O)C2CC1 (stereo not given) 0.945

Here is the next compound: COc1c2occc2c(OC)c2c(=O)cc(C)oc12 0.97

Likewise for OC(c1cc(C(F)(F)F)nc2c(C(F)(F)F)cccc12)C1CCCCN1 (stereo not given) ? 1

Again, but for OCCN1CCN(CCCN2c3ccccc3Sc3ccc(C(F)(F)F)cc32)CC1 0.899

Further, for COc1ccc2c(=O)ccoc2c1 ? 1.02

Query CC(=O)OCC1=C(C(=O)O)N2C(=O)[C@@H](NC(=O)CCCC(N)C(=O)O)C2SC1 (stereo not given in full) next 0.987

What would you report for CC(NCCC(c1ccccc1)c1ccccc1)c1ccccc1 (stereo not given) ? 0.799

Try the compound CC1=NN(c2ccccc2)C(=O)C1 0.983

Another compound to check: CNCC[C@@H](Oc1ccccc1)c1ccccc1 0.979

Follow-up item: NCCNCCNCCN 1.01

###

Assay: chemical genetic growth profiling, strain panel (AID 1159580);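 also: tested at 20 µM; growth read once vehicle control cultures reached saturation at 30 °C; 1 = growth at the plate median or of vehicle wells; lower values mean less growth of the strain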
Settings: S. cerevisiae deletion strains, growth OD, locus YER155C, strain BEM2, stronger effect = lower value
Among all 5,500 compounds or so, about 2,000 (36%) were called active. Inconclusive results (about 18%) are left out. This is one part of the list.
reported_property: normalized growth
// no unit, no text: just the number

normalized growth for CCNc1nc(Cl)nc(NCC)n1 ? 1

Further, for O=C1c2ccccc2C(=O)C1c1ccccc1 ? 0.989

Then this molecule: COc1cc(/C=C/C=O)cc(OC)c1OC 1.02

And the next one, NC1CC1c1ccccc1 (stereo not given) ? 1.01

Query CC[C@H]1OC(=O)[C@H](C)[C@@H](O[C@H]2C[C@@](C)(OC)[C@@H](O)[C@H](C)O2)[C@H](C)[C@@H](O[C@@H]2O[C@H](C)C[C@H](N(C)C)[C@H]2O)[C@](C)(O)C[C@@H](C)[C@@H]2N[C@@H](COCCOC)O[C@H]([C@H]2C)[C@]1(C)O next 1.01

###

Experiment: chemical genetic growth profiling, strain panel (AID 1159580);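 also: tested at 20 µM; growth read once vehicle control cultures reached saturation at 30 °C; 1 = growth at the plate median or of vehicle wells; lower values mean less growth of the strain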
Conditions: S. cerevisiae deletion strains, growth OD, locus YBL061C, strain skt5, stronger effect = lower value
Screen size: about 5,500 compounds; about 2,000 (36%) were called active. Roughly 18% stayed inconclusive and do not appear here. This is one part of the list.
Label Y when normalized growth is strictly below 1; at or above that, label N.

API: query returns whether the molecule falls strictly under 1 in normalized growth. Query: C#C[C@]1(O)CCC2C3CCC4=Cc5oncc5C[C@]4(C)C3CC[C@@]21C (stereo not given in full) Y

What do you get for COC(=O)[C@]1(C)CC[C@]2(C)CC[C@]3(C)C4=CC=C5C(=CC(=O)C(O)=C5C)[C@]4(C)CC[C@@]3(C)[C@@H]2C1 ? Y

Next: CC(=O)Oc1cc2c(c(C)c1OC(C)=O)CC1OC13C2(C)CCC1(C)C2CC(C)(C(=O)O)CCC2(C)CCC13C (stereo not given) N

Try this molecule next: CC(=O)OCC(=O)[C@@]1(O)CCC2C3CCC4=CC(=O)CC[C@]4(C)C3[C@@H](O)C[C@@]21C (stereo not given in full) N

Also C#CC1(O)CCC2C3CCC4=CC(=O)CCC4(C)C3CCC21C (stereo not given) ? Y
